- Assay Summary: human hepatoma cell viability loss – ATP luminescence, cytotoxicity control for P. falciparum antimalarial project, primary screen (AID 2303)
- Condition Notes: HepG2 viability, 24-48 h, at 10 µM, hits give high values
Simple rule here: inhibition less than 20% is criterion met, otherwise criterion not met.

Input line: # check: inhibition < 20% for COc1cc(NC(=O)/C=C/c2ccccc2OC(F)(F)F)cc(OCCN2CCCCC2)c1
Output line: criterion not met

Input line: # check: inhibition < 20% for N#Cc1cccc(/C=C/C(=O)NC2CCC(CCN3CCc4ccc(-c5cnccn5)cc4CC3)CC2)c1 (stereo not drawn)
Output line: criterion not met

Input line: # check: inhibition < 20% for O=C(Nc1ccc(Oc2ccccc2)cc1)N(Cc1ccc(-c2cccc(CN3CCNCC3)c2)cc1)C1CCN(Cc2ccccc2)CC1
Output line: criterion met

Input line: # check: inhibition < 20% for COCCN1CCC(CNCC(C)(C)c2nc(-c3ccc(Cl)c(O)c3)c(-c3ccncc3)[nH]2)CC1
Output line: criterion met

Input line: # check: inhibition < 20% for Cc1cc(Cl)ccc1OC(C)C(=O)N1CCc2ccccc21 (stereo not drawn)
Output line: criterion met

Input line: # check: inhibition < 20% for C=CCn1c(Sc2ccc(C#N)c([N+](=O)[O-])c2)nnc1-c1ccc(Cl)cc1
Output line: criterion met

Input line: # check: inhibition < 20% for Cc1cc(NC(=O)NCCN2CCC(NC(=O)c3ccc(C(F)(F)F)cc3)CC2)c2ccccc2n1
Output line: criterion met

Input line: # check: inhibition < 20% for CCCCCc1cc(OC(C)=O)c2c(c1)OC(C)(C)C=C2C1=CCN(Cc2ccccc2)CC1
Output line: criterion met

Input line: # check: inhibition < 20% for O=C(Cc1ccccn1)Nc1cccc(-c2cccc(-c3nc4ccc(C(F)(F)F)cc4[nH]3)c2)c1
Output line: criterion not met

Input line: # check: inhibition < 20% for Cc1cc(-c2ccc(CNCc3ccc(F)cc3)cc2)ccc1S(=O)(=O)NCCN1CCCC1
Output line: criterion not met

Input line: # check: inhibition < 20% for Nc1oc2c(CN3CCCCCC3)c(O)ccc2c(=O)c1-c1nc2ccccc2s1
Output line: criterion met

Input line: # check: inhibition < 20% for CCN1CCN(c2cc(C)c3cc(NC(=O)c4cccc(C(F)(F)F)c4)ccc3n2)CC1
Output line: criterion not met

Input line: # check: inhibition < 20% for Cc1nc(C)c(CC(=O)Nc2ccc(-c3ccc(-c4nc5ccc(C(F)(F)F)cc5[nH]4)s3)cc2)s1
Output line: criterion not met

Input line: # check: inhibition < 20% for Cc1nnsc1C(=O)Nc1cccc(-c2cccc(-c3nc4ccc(F)cc4[nH]3)c2)c1
Output line: criterion not met

Input line: # check: inhibition < 20% for O=C1NC(C(=O)Nc2ccccc2)C(c2ccccc2)S1 (stereo not drawn)
Output line: criterion met

Input line: # check: inhibition < 20% for COc1ccc(CC(=O)NC(CCN2CCC3(CCc4ccccc43)CC2)c2ccc(Cl)c(Cl)c2)cc1 (stereo not drawn)
Output line: criterion not met

Input line: # check: inhibition < 20% for Cc1ccc2[nH]c(-c3ccc(C(=O)NCc4ccc(Cl)c(Cl)c4)cc3)nc2c1C
Output line: criterion met

Input line: # check: inhibition < 20% for CC(=O)Nc1ccc(OCCCN(Cc2ccccc2OC(F)(F)F)c2ccc(C(F)(F)F)c(C#N)c2)c(Cl)c1
Output line: criterion met
